study system: Dopamine D2 receptor (Homo sapiens, UniProt P14416)
Construct: expressed in transfected cells
Sequence (P14416 whole entry, species assumed): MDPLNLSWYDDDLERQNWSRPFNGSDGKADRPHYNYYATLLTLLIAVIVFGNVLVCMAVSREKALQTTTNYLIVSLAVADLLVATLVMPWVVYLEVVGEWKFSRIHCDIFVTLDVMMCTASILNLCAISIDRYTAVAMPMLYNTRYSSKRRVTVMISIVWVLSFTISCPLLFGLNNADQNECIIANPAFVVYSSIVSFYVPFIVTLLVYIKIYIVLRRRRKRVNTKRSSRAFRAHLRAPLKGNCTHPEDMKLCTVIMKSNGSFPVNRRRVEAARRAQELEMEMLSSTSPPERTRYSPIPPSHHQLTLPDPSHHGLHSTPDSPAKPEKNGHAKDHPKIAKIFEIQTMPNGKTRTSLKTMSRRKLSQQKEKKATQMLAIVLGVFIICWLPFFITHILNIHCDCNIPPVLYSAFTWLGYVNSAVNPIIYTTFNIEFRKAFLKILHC
assay protocol: Dopamine D2 receptor binding assay
conditions used: [3H] Spiperone, HEK293 cells expressing D2 receptor
pKi: −log10 of the molar value.

{"columns": ["molecule", "study system", "qual", "pKi"],
 "data": [
  ["CN(C)C(=O)N[C@H]1CC[C@H](CCN2CCN(c3noc4cc(F)ccc34)CC2)CC1 [drawing 32]", "Dopamine D2 receptor (Homo sapiens, UniProt P14416)", "=", 8.89],
  ["CN(C)C(=O)N[C@H]1CC[C@H](CCN2CCC(c3noc4cc(F)ccc34)CC2)CC1 [drawing 34]", "Dopamine D2 receptor (Homo sapiens, UniProt P14416)", "<", 6.00],
  ["CN(C)C(=O)N[C@H]1CC[C@H](CCN2CCN(c3cccc4sccc34)CC2)CC1 [drawing 31]", "Dopamine D2 receptor (Homo sapiens, UniProt P14416)", "<", 6.00],
  ["CN(C)C(=O)N[C@H]1CC[C@H](CCN2CCN(c3ccc4c(Cl)noc4c3)CC2)CC1 [drawing 33]", "Dopamine D2 receptor (Homo sapiens, UniProt P14416)", "=", 6.60],
  ["CN(C)C(=O)N[C@H]1CC[C@H](CCN2CCN(c3cccc4cscc34)CC2)CC1 [drawing 30]", "Dopamine D2 receptor (Homo sapiens, UniProt P14416)", "=", 6.01],
  ["CN(C)C(=O)N[C@H]1CC[C@H](CCN2CCN(c3cccc4ccsc34)CC2)CC1 [drawing 29]", "Dopamine D2 receptor (Homo sapiens, UniProt P14416)", "<", 6.00]
]}

* * *

study system: 5-HT1A receptor (Homo sapiens, UniProt P08908)
Sequence (P08908 1-422): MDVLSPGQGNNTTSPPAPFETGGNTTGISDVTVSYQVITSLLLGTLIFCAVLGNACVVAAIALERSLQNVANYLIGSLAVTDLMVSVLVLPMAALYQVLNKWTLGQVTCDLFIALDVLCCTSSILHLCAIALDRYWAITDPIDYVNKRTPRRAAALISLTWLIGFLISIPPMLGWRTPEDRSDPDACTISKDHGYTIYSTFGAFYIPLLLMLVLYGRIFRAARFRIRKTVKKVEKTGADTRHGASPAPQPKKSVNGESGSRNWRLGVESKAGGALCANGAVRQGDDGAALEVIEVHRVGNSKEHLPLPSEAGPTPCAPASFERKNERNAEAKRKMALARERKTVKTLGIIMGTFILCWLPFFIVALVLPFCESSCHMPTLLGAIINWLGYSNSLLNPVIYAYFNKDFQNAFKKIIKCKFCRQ
pKi: −log10 of the molar value.

{"columns": ["compound", "pKi"],
 "data": [
  ["CN(C)C(=O)N[C@H]1CC[C@H](CCN2CCN(c3cccc4sccc34)CC2)CC1 [drawing 31]", 8.40],
  ["CN(C)C(=O)N[C@H]1CC[C@H](CCN2CCC(c3noc4cc(F)ccc34)CC2)CC1 [drawing 34]", 8.44],
  ["CN(C)C(=O)N[C@H]1CC[C@H](CCN2CCN(c3cccc4ccsc34)CC2)CC1 [drawing 29]", 8.41],
  ["CN(C)C(=O)N[C@H]1CC[C@H](CCN2CCN(c3noc4cc(F)ccc34)CC2)CC1 [drawing 32]", 8.39],
  ["CN(C)C(=O)N[C@H]1CC[C@H](CCN2CCN(c3cccc4cscc34)CC2)CC1 [drawing 30]", 8.43],
  ["CN(C)C(=O)N[C@H]1CC[C@H](CCN2CCN(c3ccc4c(Cl)noc4c3)CC2)CC1 [drawing 33]", 7.64]
]}

* * *

Tested on: MK-801-induced schizophrenia model
assay protocol: MK-801-induced schizophrenia model, open field running behavior
Format: in vivo, Sprague-Dawley rats
conditions used: single oral administration 0.3 mg/kg; versus MK-801 model control
Recorded Improvement Rate, one value per entry.
quantity kind: Improvement Rate

{"columns": ["compound", "study system", "readout value"],
 "data": [
  ["CN(C)C(=O)N[C@H]1CC[C@H](CCN2CCN(c3cccc(Cl)c3Cl)CC2)CC1 [Cariprazine, reference compound]", "MK-801-induced schizophrenia model", "45.69%"],
  ["CN(C)C(=O)N[C@H]1CC[C@H](CCN2CCN(c3nsc4ccccc34)CC2)CC1", "MK-801-induced schizophrenia model", "25.05%"],
  ["CN(C)C(=O)N[C@H]1CC[C@H](CCN2CCN(c3cccc4ccsc34)CC2)CC1", "MK-801-induced schizophrenia model", "84.84%"],
  ["CN(C)C(=O)N[C@H]1CC[C@H](CCN2CCN(c3ccc4c(Cl)noc4c3)CC2)CC1", "MK-801-induced schizophrenia model", "12.27%"],
  ["CN(C)C(=O)N[C@H]1CC[C@H](CCN2CCN(c3noc4cc(F)ccc34)CC2)CC1", "MK-801-induced schizophrenia model", "98.25%"],
  ["Cc1ccc2c(N3CCN(CC[C@H]4CC[C@H](NC(=O)N(C)C)CC4)CC3)noc2c1", "MK-801-induced schizophrenia model", "51.49%"],
  ["CN(C)C(=O)N[C@H]1CC[C@H](CCN2CCN(c3cccc4sccc34)CC2)CC1", "MK-801-induced schizophrenia model", "76.41%"],
  ["CN(C)C(=O)N[C@H]1CC[C@H](CCN2CCN(c3cccc4cscc34)CC2)CC1", "MK-801-induced schizophrenia model", "79.41%"],
  ["CN(C)C(=O)N[C@H]1CC[C@H](CCN2CCC(c3noc4cc(F)ccc34)CC2)CC1", "MK-801-induced schizophrenia model", "48.09%"]
]}

* * *

Notes on Ki obtained with Dopamine D3 receptor (Homo sapiens, UniProt P35462).
Sequence (P35462 whole entry, species assumed): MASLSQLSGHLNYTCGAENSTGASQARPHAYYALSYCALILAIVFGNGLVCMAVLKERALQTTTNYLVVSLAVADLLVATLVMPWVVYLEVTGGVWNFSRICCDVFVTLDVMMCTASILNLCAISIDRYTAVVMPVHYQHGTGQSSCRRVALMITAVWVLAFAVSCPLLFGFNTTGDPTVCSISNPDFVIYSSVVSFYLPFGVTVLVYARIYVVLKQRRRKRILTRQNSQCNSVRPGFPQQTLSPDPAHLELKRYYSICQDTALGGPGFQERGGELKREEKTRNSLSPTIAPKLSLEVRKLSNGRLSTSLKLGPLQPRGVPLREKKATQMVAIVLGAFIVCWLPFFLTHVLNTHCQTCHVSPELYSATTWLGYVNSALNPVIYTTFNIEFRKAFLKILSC
quantity kind: Ki

{"columns": ["compound", "study system", "readout value"],
 "data": [
  ["CN(C)C(=O)N[C@H]1CC[C@H](CCN2CCN(c3cccc4sccc34)CC2)CC1 [drawing 31]", "Dopamine D3 receptor (Homo sapiens, UniProt P35462)", "0.06 nM"],
  ["CN(C)C(=O)N[C@H]1CC[C@H](CCN2CCN(c3cccc4cscc34)CC2)CC1 [drawing 30]", "Dopamine D3 receptor (Homo sapiens, UniProt P35462)", "0.07 nM"],
  ["CN(C)C(=O)N[C@H]1CC[C@H](CCN2CCN(c3noc4cc(F)ccc34)CC2)CC1 [drawing 32]", "Dopamine D3 receptor (Homo sapiens, UniProt P35462)", "0.29 nM"],
  ["CN(C)C(=O)N[C@H]1CC[C@H](CCN2CCC(c3noc4cc(F)ccc34)CC2)CC1 [drawing 34]", "Dopamine D3 receptor (Homo sapiens, UniProt P35462)", "0.15 nM"],
  ["CN(C)C(=O)N[C@H]1CC[C@H](CCN2CCN(c3cccc4ccsc34)CC2)CC1 [drawing 29]", "Dopamine D3 receptor (Homo sapiens, UniProt P35462)", "0.06 nM"],
  ["CN(C)C(=O)N[C@H]1CC[C@H](CCN2CCN(c3ccc4c(Cl)noc4c3)CC2)CC1 [drawing 33]", "Dopamine D3 receptor (Homo sapiens, UniProt P35462)", "0.57 nM"]
]}

* * *

Test system: MK-801-induced schizophrenia model
assay protocol: MK-801-induced schizophrenia model, open field running behavior
Format: in vivo, Sprague-Dawley rats
conditions used: dose of 0.3 mg/kg, compared with MK-801 model control
Description: (I) Modeling of MK-801-Induced Schizophrenia in Mice Each rat was placed in a soundproof box for 30 minutes on the day before the test to adapt. […] Mice were administered with MK-801 and then immediately placed in the soundproof box. The total distances of motion of mice within 2.5 hours were observed and recorded. […]
quantity kind: inhibition of high spontaneous activity of MK-801-induced rats

{"columns": ["compound", "study system", "readout value"],
 "data": [
  ["CN(C)C(=O)N[C@H]1CC[C@H](CCN2CCN(c3ccc4c(Cl)noc4c3)CC2)CC1", "MK-801-induced schizophrenia model", "significantly inhibited"],
  ["CN(C)C(=O)N[C@H]1CC[C@H](CCN2CCN(c3cccc4ccsc34)CC2)CC1", "MK-801-induced schizophrenia model", "significantly inhibit"],
  ["CN(C)C(=O)N[C@H]1CC[C@H](CCN2CCN(c3cccc4cscc34)CC2)CC1", "MK-801-induced schizophrenia model", "significantly inhibit"],
  ["CN(C)C(=O)N[C@H]1CC[C@H](CCN2CCN(c3cccc4sccc34)CC2)CC1", "MK-801-induced schizophrenia model", "significantly inhibit"],
  ["CN(C)C(=O)N[C@H]1CC[C@H](CCN2CCC(c3noc4cc(F)ccc34)CC2)CC1", "MK-801-induced schizophrenia model", "significantly inhibited"],
  ["CN(C)C(=O)N[C@H]1CC[C@H](CCN2CCN(c3noc4cc(F)ccc34)CC2)CC1", "MK-801-induced schizophrenia model", "significantly inhibit"],
  ["CN(C)C(=O)N[C@H]1CC[C@H](CCN2CCN(c3cccc(Cl)c3Cl)CC2)CC1 [Cariprazine, reference compound]", "MK-801-induced schizophrenia model", "significantly inhibited"],
  ["Cc1ccc2c(N3CCN(CC[C@H]4CC[C@H](NC(=O)N(C)C)CC4)CC3)noc2c1", "MK-801-induced schizophrenia model", "significantly inhibited"]
]}
